TEST_DESCRIPTION: Stability of linkers L1-L4 conjugated to FGF21 (LC-MS)
Type: physicochemical
EXPERIMENTAL_CONTEXT: +4° C., 0 hrs
REPORTED_METRIC: 1 linker (protein+linker) (%)
Answers are plain numbers, in %.

MOLECULE: L1-FGF21ΔH-A129C: Linker-1 conjugated to FGF21ΔH-A129C protein (Table 4; Table 5 row L1) (conjugate, UniProt Q9NSA1 29-209, looked up, variant H1* A129C, Linker-1 attached) Fibroblast growth factor 21: PIPDSSPLLQFGGQVRQRYLYTDDAQQTEAHLEIREDGTVGGAADQSPESLLQLKALKPGVIQILGVKTSRFLCQRPDGALYGSLHFDPEACSFRELLLEDGYNVYQSEAHGLPLHLPGNKSPHRDPCPRGPARFLPLPGLPPALPEPPGILAPQPPDVGSSDPLSMVGPSQGRSPSYAS
1 linker (protein+linker) / %: 49

Look at each molecule and report its 1 linker (protein+linker).
1. L4-FGF21ΔH-A129C: Linker-4 conjugated to FGF21ΔH-A129C protein (Table 4; Table 5 row L4) (conjugate, UniProt Q9NSA1 29-209, looked up, variant H1* A129C, Linker-4 attached) Fibroblast growth factor 21: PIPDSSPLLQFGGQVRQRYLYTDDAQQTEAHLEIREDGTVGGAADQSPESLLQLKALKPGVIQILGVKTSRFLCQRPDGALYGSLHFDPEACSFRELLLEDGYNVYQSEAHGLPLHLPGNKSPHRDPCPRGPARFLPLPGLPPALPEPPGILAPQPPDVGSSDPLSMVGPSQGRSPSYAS
2. L2-FGF21ΔH-A129C: Linker-2 conjugated to FGF21ΔH-A129C protein (Table 4; Table 5 row L2) (conjugate, UniProt Q9NSA1 29-209, looked up, variant H1* A129C, Linker-2 attached) Fibroblast growth factor 21: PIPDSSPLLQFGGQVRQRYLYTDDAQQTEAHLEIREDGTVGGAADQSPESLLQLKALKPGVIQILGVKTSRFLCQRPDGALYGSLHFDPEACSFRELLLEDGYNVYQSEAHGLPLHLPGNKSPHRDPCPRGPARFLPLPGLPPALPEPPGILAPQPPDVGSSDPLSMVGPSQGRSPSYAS

[46, 45]

Item under review: L3-FGF21ΔH-A129C: Linker-3 conjugated to FGF21ΔH-A129C protein (Table 4; Table 5 row L3) (conjugate, UniProt Q9NSA1 29-209, looked up, variant H1* A129C, Linker-3 attached) Fibroblast growth factor 21: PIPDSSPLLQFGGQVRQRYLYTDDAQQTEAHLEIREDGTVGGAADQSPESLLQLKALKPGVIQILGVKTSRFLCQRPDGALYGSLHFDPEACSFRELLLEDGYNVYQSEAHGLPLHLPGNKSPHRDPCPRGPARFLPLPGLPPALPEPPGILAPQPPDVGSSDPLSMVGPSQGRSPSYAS . Reported 1 linker (protein+linker)?
45
